Target: KRas G12C (Homo sapiens, UniProt P01116, G12C)
Construct: NCI-H358 cells (ATCC CRL-5807) express KRas G12C
Sequence (P01116 1-188 isoform P01116-2 G12C): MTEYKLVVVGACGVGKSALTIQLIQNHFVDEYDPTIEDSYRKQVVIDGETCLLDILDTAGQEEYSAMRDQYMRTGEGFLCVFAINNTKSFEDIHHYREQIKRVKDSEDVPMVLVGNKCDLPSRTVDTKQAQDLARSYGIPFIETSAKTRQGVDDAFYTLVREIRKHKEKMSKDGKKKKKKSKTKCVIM
Experiment: Inhibition of KRas G12C-dependent cell growth: Phospho-ERK in NCI-H358 cells
Settings: NCI-H358 cells expressing KRas G12C; Phospho-ERK (Thr202/Tyr204) normalized to GAPDH; 3 hours compound; 4 parameter fit
MEASUREMENT_KIND: IC50 (nM)

Here are 4 molecules together with their reported answers.
- MOLECULE: "C=C(F)C(=O)N1CCN(c2nc(N3CC(N(C)C)C3)nc3c(F)c(-c4cccc5ccc(F)c(Cl)c45)ncc23)C[C@@H]1CC#N [Example 170]"
  ASSAY_VALUE: 19
- MOLECULE: "C=CC(=O)N1CCN(c2nc(OC[C@@H]3CCCN3C)nc3c(F)c(-c4ccccc4F)ncc23)CC1 [Example 184]"
  ASSAY_VALUE: 10000
- MOLECULE: "C=C(F)C(=O)N1CCN(c2nc(OC[C@@H]3CCN3CC)nc3c(F)c(-c4cccc5ccc(F)c(Cl)c45)ncc23)C[C@@H]1CC#N [Example 173]"
  ASSAY_VALUE: 31
- MOLECULE: "C=C(F)C(=O)N1CCN(c2nc(OC[C@@H]3CCCN3CC(F)F)nc3c(F)c(-c4cccc5ccc(F)c(Cl)c45)ncc23)C[C@@H]1CC#N [Example 185]"
  ASSAY_VALUE: 145

[1] C=C(F)C(=O)N1CCN(c2nc(OCC34CCCN3C[C@H](F)C4)nc3c(F)c(-c4cccc5ccc(F)c(Cl)c45)ncc23)C[C@@H]1CC#N (stereo partly drawn) [Example 181]
[2] C=CC(=O)N1CC[C@@H]2[C@H]1CN2c1nc(C)nc2c(F)c(-c3cccc4ccc(F)c(Cl)c34)ncc12 [Example 238]
I need your help: which of the pair 1 , 2 has higher IC50? Returns: label corresponding to the selected item.
2
(2: 379 nM, 1: 4 nM)

---

Target: KRas G12C (Homo sapiens, UniProt P01116, G12C)
Construct: NCI-H358 cells (ATCC CRL-5807) express KRas G12C
Test: Inhibition of KRas G12C-dependent cell growth: Phospho-ERK in NCI-H358 cells
Settings: NCI-H358 cells expressing KRas G12C; Phospho-ERK (Thr202/Tyr204) normalized to GAPDH; 3 hours compound; 4 parameter fit
Experimental: The cellular inhibition of KRAs G12C by exemplary compounds of the present invention was determined by measuring the amount of a downstream marker of KRas activity, phosphorylated ERK (“Phospho-ERK”). […] The amount Phospho-ERK was determined using an antibody specific for the phosphorylated form of ERK and compared to the amount of GAPDH. […] The pERK(Thr202/Tyr204) signal was normalized with the GAPDH signal and percent of DMSO control values were calculated. […]
pIC50: −log10 of the molar value.
MEASUREMENT_KIND: pIC50

Here are 2 compounds together with their reported answers.
- COMPOUND: "C=C(F)C(=O)N1CCN(c2nc(NC3CCN(C4CC4)CC3)nc3c(F)c(-c4cccc5cccc(Cl)c45)ncc23)C[C@@H]1CC#N"
  ASSAY_VALUE: 5.60
- COMPOUND: "COC/C=C/C(=O)N1CC[C@@H]2[C@H]1CN2c1ncnc2c(F)c(-c3cccc4ccc(F)c(Cl)c34)ncc12"
  ASSAY_VALUE: 5.05

[a] C=CC(=O)N1CC[C@@H]2[C@H]1CN2c1nc(OCC)nc2c(F)c(-c3cccc4ccc(F)c(Cl)c34)ncc12
[b] C=CC(=O)N1CCN(c2nc(OC[C@@H]3CCCN3C)nc3c(F)c(-c4cccc5ccc(F)c(Cl)c45)ncc23)CC1C(F)(F)F (stereo partly shown)
I need your help: which of the pair a , b has higher pIC50? Returns: label corresponding to the selected item.
b

[P] C=CC(=O)N1CC2(C1)CN(c1ncnc3c(F)c(-c4cccc5ccc(F)c(Cl)c45)ncc13)C2
[Q] N#CC[C@H]1CN(c2ncnc3c(F)c(-c4cccc5ccc(F)c(Cl)c45)ncc23)CCN1C(=O)/C=C/CF
[R] C=CC(=O)N1CC[C@@H]2[C@H]1CN2c1ncnc2c(F)c(-c3c(O)ccc4ccccc34)ncc12
[S] C=CC(=O)N1CCN(c2nc(OCC34CCCN3CCC4)nc3c(F)c(-c4cccc5ccc(F)c(Cl)c45)ncc23)CC1
Your job: order these 4 records by pIC50, ascending. Thanks in advance for listing the labels in the requested order.
P, R, Q, S
(P: 5.00, R: 5.63, Q: 6.66, S: 7.92)
